// provenance: patent US20080267948A1

biological target: Hb-AGE (glucose-6-phosphate modified human haemoglobin) (Homo sapiens, UniProt P68871+P69905); construct: purchased Sigma-Aldrich H7379; experiment: ELISA binding of tPA to immobilized Hb-AGE, compounds co-incubated with tPA; settings: compound mixed with tPA, control without compound = 100
Sequence (P69905 2-142 limits assumed): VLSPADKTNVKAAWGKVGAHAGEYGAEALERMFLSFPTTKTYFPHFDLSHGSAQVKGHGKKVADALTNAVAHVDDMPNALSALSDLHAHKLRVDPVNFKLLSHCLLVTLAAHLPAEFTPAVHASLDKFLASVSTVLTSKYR
Sequence (P68871 2-147 limits assumed): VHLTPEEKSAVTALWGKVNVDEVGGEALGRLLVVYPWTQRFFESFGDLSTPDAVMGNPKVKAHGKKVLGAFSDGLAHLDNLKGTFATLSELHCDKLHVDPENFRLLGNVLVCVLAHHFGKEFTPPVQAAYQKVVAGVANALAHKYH
REPORTED_ENDPOINT: % tPA binding to Hb-AGE (co-incubation) (%)
# output: bare number, implied unit %

// known answers, use as guide
MOLECULE	REPORTED_ENDPOINT	RECORDED_RESULT
COc1cc2c(cc1OC)-c1c(OC)c(OC)cc3ccnc(c13)C2=O [compound 204, 7-Oxoglaucine]	% tPA binding to Hb-AGE (co-incubation)	70
COc1ccc2c(c1O)-c1c(OC)c(OC)cc3c1[C@H](C2)N(C)CC3 [compound 138]	% tPA binding to Hb-AGE (co-incubation)	50
COc1cc2c(cc1O)CC1c3c(cc(O)c(OC)c3-2)CCN1C (stereo not shown) [compound 53]	% tPA binding to Hb-AGE (co-incubation)	55

# ---- query molecule ----
Task item: Form field: reported % tPA binding to Hb-AGE (co-incubation) of COc1cc2c(cc1O)C[C@H]1c3c(cc(OC)c(O)c3-2)CCN1C [compound 202, Isoboldine]
Reply: 250

---

target: amyloid-β(1-40) E22Q (Homo sapiens, UniProt P05067, E693Q); construct: For similar ELISA's with DOVA and Aβ(1-40) E22Q, 1 μg/ml DOVA or Aβ was coated; purchased Peptide facility, Dutch Cancer Institute, Amsterdam; host or cells: synthetic peptide; assay: ELISA binding of tPA to immobilized Aβ after pre-incubation with compounds; conditions: 1 μg/ml coated Aβ first exposed to 500 μg/ml compound, then 80 nM tPA, control = 100
Sequence (P05067 672-711 E693Q): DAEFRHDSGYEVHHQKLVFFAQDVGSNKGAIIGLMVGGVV
Decision: % tPA binding (after compound incubation), Aβ beneath 200% gives satisfied; % tPA binding (after compound incubation), Aβ meeting or exceeding 200% gives not satisfied.

MOLECULE	SYSTEM_NAME	LABEL
COc1cc2c(cc1OC)-c1c(OC)c(OC)c(C=O)c3c1[C@H](C2)N(C)CC3 [compound 213, dehydroglaucine derivative]	amyloid-β(1-40) E22Q (Homo sapiens, UniProt P05067, E693Q)	not satisfied
COc1cc2c(cc1O)C[C@H]1c3c(cc(OC)c(O)c3-2)CCN1C	amyloid-β(1-40) E22Q (Homo sapiens, UniProt P05067, E693Q)	not satisfied
COc1cc2c(Cc3c4c5c(cc(OC)c(OC)c5c5c(OC)c(OC)ccc35)CCN4C)c3c4c(cc(OC)c(OC)c4c2cc1OC)CCN3C [compound 210, dehydroglaucine derivative]	amyloid-β(1-40) E22Q (Homo sapiens, UniProt P05067, E693Q)	satisfied
COc1cc2c(cc1O)-c1c(O)c(OC)cc3c1[C@H](C2)N(C)CC3	amyloid-β(1-40) E22Q (Homo sapiens, UniProt P05067, E693Q)	satisfied
COc1cc2c(cc1OC)-c1c(O)c(OC)cc3c1[C@H](C2)N(C)CC3	amyloid-β(1-40) E22Q (Homo sapiens, UniProt P05067, E693Q)	not satisfied

Task item: Could you please tell me whether % tPA binding (after compound incubation), Aβ recorded for COc1cc2c(cc1OC)-c1c(OC)c(OC)cc3ccnc(c13)C2=O is less than 200%?
Reply: satisfied
